- systemName: RARγ (Homo sapiens)
- Sequence (P13631 185-454 limits assumed): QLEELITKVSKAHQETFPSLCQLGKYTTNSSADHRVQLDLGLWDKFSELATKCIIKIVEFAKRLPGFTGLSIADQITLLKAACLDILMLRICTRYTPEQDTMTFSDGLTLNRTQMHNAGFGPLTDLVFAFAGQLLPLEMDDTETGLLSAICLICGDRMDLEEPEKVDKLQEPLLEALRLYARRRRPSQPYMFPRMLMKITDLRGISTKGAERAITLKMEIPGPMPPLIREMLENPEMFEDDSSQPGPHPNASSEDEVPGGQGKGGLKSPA
- assaySummary: Transactivation assay (luciferase reporter, crossed curves vs reference agonist, Schild regression)
- statedConditions: HeLa stable transfectants, ERE-βGlob-Luc-SV-Neo reporter and RARγ ER-DBD-puro; 18 hours incubation; apparent Kd; read-out: RARγ Kdapp
- Procedure: This activity on RARα, β and γ receptors is measured in a transactivation test and quantified by means of the dissociation constant Kdapp (apparent). The activation of receptors with an agonist (activator) in HeLa cells leads to the expression of a reporter gene, luciferase, which, in the presence of a substrate, generates light. The activation of the receptors can thus be measured by quantifying the luminescence produced after incubation of the cells in the presence of a reference agonist. […]
parameterMeasured: Kd (nM)

Some compounds with known Kd results, for comparison:
| compound | Kd, nM |
| --- | --- |
| CCN(CC)c1ccc(C(O)C#Cc2ccc(C(=O)O)cc2)cc1C(C)C (centres unmarked) | 30 |
| CN(C)c1c(Cl)cc(C(O)C#Cc2ccc(C(=O)O)cc2)cc1C(C)(C)C (centres unmarked) | 2 |
| CN(C)c1c(Cl)cc(C(O)C#Cc2ccc(C(=O)O)c(O)c2)cc1C(C)(C)C (centres unmarked) | 4 |

A. CC(C)c1cc(C(O)C#Cc2ccc(C(=O)O)c(O)c2)cc(C(C)C)c1N(C)C (centres unmarked)
B. CC(C)(C)c1cc(C(O)C#Cc2ccc(C(=O)O)cc2)ccc1N1CCCC1 (centres unmarked)
Q. Param pair: A , B . Output: the one whose Kd is numerically greater. Reply briefly: the label of your chosen item.
A. B
(B: 30 nM, A: 1 nM)
